- Test system: maize roots
- experimental-protocol: Corn root bioassay (ethylene production by maize roots)
- Format: in vivo, Zea mays L.
- condition-description: Zea mays; experiment 2; 20 mg/l; 36 h; read-out: Ethylene, % of control
Below, each entry is listed alongside its reported activity at 20 µg/mL.
Your answer is read as %, so omit the unit and give the number.

compound | measurement-name | units-symbol | experimental-result
CC(=O)NCCO [NAE-2, N-Acetyl-2-aminoethanol] | activity at 20 µg/mL | % | 160

Ask: Form field: reported activity at 20 µg/mL of O=CNCCO [NAE-1, N-Formyl-2-aminoethanol]
Reply: 157

Ask: What value of activity at 20 µg/mL has been reported for the following compound? CCCCCCCC(=O)NCCO [NAE-8:0, N-Octanoyl-2-aminoethanol]
Reply: 193

Ask: Which measured activity at 20 µg/mL value corresponds to CCCCCCCCCC(=O)NCCO [NAE-10:0, N-Decanoyl-2-aminoethanol] ?
Reply: 115
